test: Proton dissociation constants by pH potentiometry; type: physicochemical; conditions: aqueous solution, T = 298.2 K, I = 0.1 M KCl, read-out: pKa4
Listed here: items and their measured pKa.
readout kind: pKa

[[record]]
compound = "COc1cc(S(=O)(=O)[O-])cc(/C=N/NC(=S)N/N=C/c2cc(S(=O)(=O)[O-])cc(OC)c2O)c1O.[Na+].[Na+] [bis-TCH]"
meas_value = 8.54

[[record]]
compound = "COc1cc(S(=O)(=O)[O-])cc(/C=N/NC(=O)N/N=C/c2cc(S(=O)(=O)[O-])cc(OC)c2O)c1O.[Na+].[Na+] [bis-CH]"
meas_value = 8.45

